settings: in benzyl alcohol, 318.15 K
measurement.label: solubility (mole fraction)

>  <smiles.repr>
O=C1NC(=O)c2cc([N+](=O)[O-])ccc21

>  <test.value>
0.0417

$$$$

###

conditions: in acetonitrile, 283.15 K

>  <smiles.repr>
O=C1NC(=O)c2cc([N+](=O)[O-])ccc21

>  <solubility (mole fraction)>
0.00449

$$$$

###

details: in 1,4-dioxane, 295.65 K
measurement.label: solubility (mole fraction)

>  <smiles.repr>
O=C1NC(=O)c2cc([N+](=O)[O-])ccc21

>  <measurement.label>
solubility (mole fraction)

>  <test.value>
0.0282

$$$$

###

conditions: in DMF, 278.15 K

>  <smiles.repr>
O=C1NC(=O)c2cc([N+](=O)[O-])ccc21

>  <solubility (mole fraction)>
0.0425

$$$$

###

settings: in cyclohexanone, 288.15 K

>  <smiles.repr>
O=C1NC(=O)c2cc([N+](=O)[O-])ccc21

>  <solubility (mole fraction)>
0.0387

$$$$

###

conditions: in methanol, 293.15 K

>  <smiles.repr>
O=C1NC(=O)c2cc([N+](=O)[O-])ccc21

>  <solubility (mole fraction)>
0.00272

$$$$

###

conditions: in isopropanol, 278.15 K
measurement.label: solubility (mole fraction)

>  <smiles.repr>
O=C1NC(=O)c2cc([N+](=O)[O-])ccc21

>  <test.value>
0.000741

$$$$

###

conditions: in benzyl alcohol, 305.65 K

>  <smiles.repr>
O=C1NC(=O)c2cc([N+](=O)[O-])ccc21

>  <solubility (mole fraction)>
0.0312

$$$$

###

details: in chloroform, 293.15 K
measurement.label: solubility (mole fraction)

>  <smiles.repr>
O=C1NC(=O)c2cc([N+](=O)[O-])ccc21

>  <test.value>
0.000959

$$$$

###

settings: in methanol, 308.15 K
measurement.label: solubility (mole fraction)

>  <smiles.repr>
O=C1NC(=O)c2cc([N+](=O)[O-])ccc21

>  <test.value>
0.00427

$$$$

###

conditions: in acetonitrile, 298.15 K

>  <smiles.repr>
O=C1NC(=O)c2cc([N+](=O)[O-])ccc21

>  <solubility (mole fraction)>
0.00618

$$$$

###

conditions: in 1,4-dioxane, 323.15 K

>  <smiles.repr>
O=C1NC(=O)c2cc([N+](=O)[O-])ccc21

>  <solubility (mole fraction)>
0.0425

$$$$

###

details: in isopropanol, 323.15 K

>  <smiles.repr>
O=C1NC(=O)c2cc([N+](=O)[O-])ccc21

>  <solubility (mole fraction)>
0.00443

$$$$

###

conditions: in ethyl acetate, 295.65 K
measurement.label: solubility (mole fraction)

>  <smiles.repr>
O=C1NC(=O)c2cc([N+](=O)[O-])ccc21

>  <measurement.label>
solubility (mole fraction)

>  <test.value>
0.0155

$$$$

###

details: in DMF, 323.15 K
measurement.label: solubility (mole fraction)

>  <smiles.repr>
O=C1NC(=O)c2cc([N+](=O)[O-])ccc21

>  <test.value>
0.155

$$$$

###

settings: in isopropanol, 273.15 K

>  <smiles.repr>
O=C1NC(=O)c2cc([N+](=O)[O-])ccc21

>  <solubility (mole fraction)>
0.000586

$$$$

###

settings: in 1,4-dioxane, 305.65 K
measurement.label: solubility (mole fraction)

>  <smiles.repr>
O=C1NC(=O)c2cc([N+](=O)[O-])ccc21

>  <measurement.label>
solubility (mole fraction)

>  <test.value>
0.0331

$$$$

These data points were gathered from BigSolDB 2.1.
